# Test system: KM12 colon
# assay_comment: NCI-60 one-dose screen, 48 h
# cond: 10 µM
# Description: Growth inhibition of the KM12 human tumor cell line is measured as a screen for anti-cancer activity. Cells are grown in 96 well plates and exposed to the test compound for 48 hours. Compounds are tested at a single concentration, which is 10^-5 M for most compounds. The reported endpoint is percent growth (GI% or GIPRCNT), where numbers from 0 - 100% represent growth inhibition, and numbers from -100% - 0 represent cell death. For example, a value of 40 represents 60% growth inhibition. […]
About 83,000 compounds went through this panel and 20% of them were active in at least one assay; those are over-represented in the sample as a whole. Active and inactive are the calls of the source. How the source made its calls: active means growth percent below 10; inactive means the rest.
Your reply should match one of these outcome classes. true (1) (active), false (0) (inactive)

Examples with answers:
{"columns": ["molecule", "class_label"],
 "data": [
  ["O=C1NC(=NC23CC4CC(CC(C4)C2)C3)N/C1=C\\c1ccc2ncccc2n1", "true (1)"],
  ["CN(C(=O)c1ccc(C(F)(F)F)cc1C(F)(F)F)c1sc2c(c1C#N)CCC(=O)C2", "false (0)"],
  ["CCOC(=O)C1NN(c2ccc(S(N)(=O)=O)cc2)c2nc3nc(-c4cccs4)cc(-c4cccs4)c3c(=O)n21 (stereo not given)", "false (0)"]
]}

Req: In this assay, the call recorded for `Cc1ccc(/C(CSc2nnc(-c3c[nH]c4ccccc34)n2-c2ccccc2)=N/O)cc1` was what?
Resp: false (0)

Req: GET /call?item= `O=C(CNc1nc(-c2ccccc2)cs1)Nc1ccc(Br)cc1` returns the recorded outcome of this test.
Resp: true (1)

###

# Tested on: HOP-92 NSCLC
# assay_comment: NCI-60 one-dose screen, 48 h (100 = growth as untreated, 0 = no growth, -100 = all killed)
# cond: 10 µM
About 83,000 compounds went through this panel and 20% of them were active in at least one assay; those are over-represented in the sample as a whole.
Attribute: growth
Report only the number, with the unit % understood.

// below: answered molecules
{"columns": ["molecule", "quantity_unit", "growth"],
 "data": [
  ["Nc1cc(-c2cccc(C(=O)NCc3ccc4c(c3)OCO4)c2)ccn1", "%", 89.4],
  ["O=C(CSc1nnc(-c2c[nH]c3ccccc23)n1-c1ccccc1)Nc1ccc(C(=O)/C=C/c2cccc([N+](=O)[O-])c2)cc1", "%", 104],
  ["O=C(c1ccc(Cl)cc1)C1[C@H](c2ccc(Br)cc2)[C@@H](c2ccccc2)NC12C(=O)Nc1ccc(Cl)cc12 (stereo partly drawn)", "%", -69.2]
]}

Req: // returns reported growth for input `Cc1ccc(-c2cc(C(=O)N=Nc3c(O)[nH]c4ccccc34)c3ccccc3n2)cc1`
Resp: 21.6

Req: // query growth value for entry `N#Cc1ccc(-c2nn(-c3ccc(C(=O)O)cc3)cc2CNc2ccc(Oc3ccccc3)cc2)cc1`
Resp: 38.8

Req: Consider the molecule shown here: `CC(C)C1=C[C@@]23CC[C@@H]4[C@](C)(CCC[C@]4(C)C(=O)NCc4ccccc4)[C@H]2C[C@@H]1[C@H]1C(=O)CCC(=O)[C@H]13` What is its recorded growth?
Resp: 68.9

Req: If you can, please state the reported growth value of O=C1CCC(N2Cc3c(C#CCCCNC(=O)c4ccc(NC(=O)[C@@H]5NC6(CCCCC6)[C@@]6(C(=O)Nc7cc(Cl)ccc76)[C@H]5c5cccc(Cl)c5F)cc4)cccc3C2=O)C(=O)N1 (stereo partly drawn) .
Resp: 39.3

Req: Reported growth for `COc1ccc(OC)c(-c2cc(-c3c[nH]c4ccccc34)nc(N)c2C#N)c1` : what is it?
Resp: -36.8

###

# Test system: IGROV1 ovarian
# assay_comment: NCI-60 one-dose screen, 48 h
# cond: 10 µM
About 83,000 compounds went through this panel and 20% of them were active in at least one assay; those are over-represented in the sample as a whole. Activity calls are given as the source filed them. The calls were made as follows: active = growth percent below 10; inactive = the rest.
Hello, when you answer, please use one of the following outcomes: active, inactive

{"columns": ["molecule", "class_label"],
 "data": [
  ["O=C(CN1CCN(c2ncnc3c2cnn3-c2ccccc2)CC1)Nc1nncs1", "active"],
  ["CC[C@]12C=CCN3CC[C@@]4(c5cc(C#CCNc6ccc(C)c(Nc7nccc(-c8cccnc8)n7)c6)c(OC)cc5N(C)[C@H]4[C@@](O)(C(=O)OC)[C@@H]1OC(C)=O)C32 (stereo partly drawn)", "inactive"],
  ["N#Cc1ccc(-c2nn(-c3ccc(C(=O)O)cc3)cc2CNc2ccc(Oc3ccccc3)cc2)cc1", "inactive"]
]}

Then there is this molecule:
Req: Returns: the outcome recorded for COc1ccc(/C=C/C(=O)c2ccc(NC(=O)CN3C(=O)NC(C)(c4ccccc4)C3=O)cc2)cc1 (stereo not drawn) in this assay.
Resp: inactive

###

# System: MALME-3M melanoma
# assay_comment: NCI-60 one-dose screen, 48 h (100 = growth as untreated, 0 = no growth, -100 = all killed)
# cond: 10 µM
This is part of a sample that, as a whole, favours compounds with a hit. Of some 83,000 tested, about 20% had one in any assay.
readout_type: growth (%)
Answer format: numeric, % implied, no suffix.

Please review the entries below; each comes with its answer.
{"columns": ["substance_smiles", "growth, %"],
 "data": [
  ["O/N=C(\\CSc1nnc(-c2c[nH]c3ccccc23)n1-c1ccccc1)c1ccc(Br)cc1", -10.2],
  ["O=C(Cn1cc(CSc2nnc3oc4ccccc4n23)nn1)Nc1cccc(Cl)c1", 72.8],
  ["CC(=O)Nc1ccc(-n2cnc3cc(-c4ccc(NS(C)(=O)=O)cc4)ccc32)cc1", 75.6],
  ["N#Cc1c(NC(=O)c2cccc(C(F)(F)F)c2)sc2c1CCC(O)=C2", 19.3],
  ["O=C(CS(=O)(=O)c1oc(-c2ccc(Cl)cc2)nc1S(=O)(=O)c1ccccc1)N1CCCC1", -99.2],
  ["CCCCCCCCCCCCCCCCCCCC(=O)NCCc1c[nH]c2ccc(OC(=O)NOCCOCCOCCOCCOCCOCCOCCOCCOCCOCCOCCOCCOCCOCCOCCOCCOCCOCCOCCOCCOCCOCCOC)cc12", 8.02],
  ["O=C(/C=C/Nc1ccccc1)c1ccc2c(c1)Nc1ccccc1S2", 71.5],
  ["Cc1ccc(F)cc1N/C=c1\\s/c(=C(\\C#N)C(=O)Nc2ccccc2)n(-c2ccccc2)c1=O", 53]
]}

Req: // fetch MALME-3M melanoma growth for `O=C(Cn1nc(-c2ccccc2)ccc1=O)NNC(=S)NC1CCCCC1`
Resp: 105

Req: Form entry - test system: MALME-3M melanoma; read-out: growth; compound: `CC(=O)c1cc(C(=O)N2c3ccccc3Sc3ccccc32)n2ccc(C)cc12`
Resp: 53.9

Req: Form: Entry = `COc1ccc(-c2cc(C(=O)N=Nc3c(O)[nH]c4ccc(F)cc34)c3ccccc3n2)cc1` | System = MALME-3M melanoma | growth = ____
Resp: 25.3

Req: Form field: growth recorded for `CC(=O)Nc1ccc(-c2cn(-c3cccc(C(=O)Nc4cccc(OC(F)(F)F)c4)c3)nn2)cn1` with MALME-3M melanoma (enter value)
Resp: 26.4

Req: Request body: readout growth, system MALME-3M melanoma, query `CC(=O)c1ccc(Nc2nc(SC(C)C)nc(-c3ccccc3)c2C#N)cc1` . Return the value.
Resp: 8.39

Req: What measured growth is associated with `Nc1nc(Nc2ccc(Cl)cc2)n(Cc2cccc(Br)c2)n1` on MALME-3M melanoma?
Resp: -53.2

Req: For the record `CC1(C)CC[C@]2(C(=O)Nc3ccccc3)CC[C@]3(C)C(=CC[C@@H]4[C@@]5(C)CC[C@H](N)C(C)(C)[C@@H]5CC[C@]43C)[C@H]2C1` , what value of growth is listed for MALME-3M melanoma?
Resp: 83.7

Req: Query growth on MALME-3M melanoma for `Nc1nc(Nc2ccc(Cl)cc2)nn1Cc1cccc(Br)c1`
Resp: 50.6

Req: Report growth for `O=c1[nH]c2ccc(Cl)cc2cc1CSc1ccc(Nc2nccc(-c3ccc(Cl)cc3)n2)cc1` tested on MALME-3M melanoma.
Resp: 57.5

Req: Request body: readout growth, system MALME-3M melanoma, query `CC(=O)Nc1nc(-c2ccc(N3CCN(C)CC3)c(NS(=O)(=O)c3ccc(C(F)(F)F)cc3)c2)cs1` . Return the value.
Resp: 38.1

###

# Test system: SW-620 colon
# assay_comment: NCI-60 one-dose screen, 48 h
# cond: 10 µM
This is part of a sample that, as a whole, favours compounds with a hit. Of some 83,000 tested, about 20% had one in any assay. The source made the active and inactive calls. Rule for the calls: active = growth percent below 10; inactive = the rest.
Please reply with one of these outcomes: true (1) = active, false (0) = inactive

The examples below pair each entry with its known result.
{"columns": ["molecule", "class_label"],
 "data": [
  ["O=c1[nH]c2ccccc2cc1CSc1ccc(Nc2nccc(-c3ccc4c(c3)OCO4)n2)cc1", "false (0)"],
  ["CN1C(=O)N(C)C2SC(N/N=C/c3ccccc3F)=NC21 (configuration not stated)", "false (0)"],
  ["COc1csc(/C=N/NC(=O)c2[nH]c3ccc(Br)cc3c2-c2ccccc2)c1", "false (0)"],
  ["CC(=O)Nc1ccc(-c2cn(-c3cccc(C(=O)Nc4ccc(F)c(C(F)(F)F)c4)c3)nn2)cn1", "true (1)"],
  ["COc1cc2c3c(n(CCCN4CCOCC4)c(=O)c2cc1OC)-c1nc2c(cc1C3=O)OCO2", "false (0)"]
]}

Req: Test call, this molecule: `COc1cc(NC(=O)CSc2nnc(-c3ccc4nc(-c5ccc(Cl)cc5)[nH]c4c3)o2)cc(OC)c1OC`
Resp: false (0)

Req: Dear colleague, could you share the recorded outcome for `COc1cccc2nc(Nc3ccc(F)c(NC(=O)c4ccc(CN5CCN(C)CC5)c(C(F)(F)F)c4)c3)ccc12` when you have a moment?
Resp: true (1)

Req: What did this assay record as the result for `O=C(Nc1ccncc1)c1ccc(-n2c(=O)[nH]c3ccccc3c2=O)cc1` ?
Resp: false (0)
